Assay: Immunostimulatory activity in polymorphonuclear leukocytes (unknown origin) assessed as induction of oxidative burst after 40 mins by fluorescence assay relative to ingenol 3-angelate
Assay type: functional
Overview of reported Emax across a group of compounds:

Mol smiles	Reported metric	Test value
CCCCCCCCCCCCNc1ccccc1C(=O)O[C@H]1C(C)=C[C@]23C(=O)[C@@H](C=C(CO)[C@@H](O)[C@]12O)[C@H]1[C@@H](C[C@H]3C)C1(C)C	Emax	78%
CC1=C[C@]23C(=O)[C@@H](C=C(CO)[C@@H](O)[C@]2(O)[C@H]1OC(=O)c1c(C)cccc1C)[C@H]1[C@@H](C[C@H]3C)C1(C)C	Emax	123%
CNc1ccccc1C(=O)O[C@H]1C(C)=C[C@]23C(=O)[C@@H](C=C(CO)[C@@H](O)[C@]12O)[C@H]1[C@@H](C[C@H]3C)C1(C)C	Emax	113%
COc1cccc(NCc2ccccc2)c1C(=O)O[C@H]1C(C)=C[C@]23C(=O)[C@@H](C=C(CO)[C@@H](O)[C@]12O)[C@H]1[C@@H](C[C@H]3C)C1(C)C	Emax	112%
COc1cccc(OC)c1C(=O)O[C@H]1C(C)=C[C@]23C(=O)[C@@H](C=C(CO)[C@@H](O)[C@]12O)[C@H]1[C@@H](C[C@H]3C)C1(C)C	Emax	116%
CC1=C[C@]23C(=O)[C@@H](C=C(CO)[C@@H](O)[C@]2(O)[C@H]1OC(=O)c1c(C)cccc1Cl)[C@H]1[C@@H](C[C@H]3C)C1(C)C	Emax	130%
CC1=C[C@]23C(=O)[C@@H](C=C(CO)[C@@H](O)[C@]2(O)[C@H]1OC(=O)c1ccccc1Nc1ccccc1)[C@H]1[C@@H](C[C@H]3C)C1(C)C	Emax	129%
CC1=C[C@]23C(=O)[C@@H](C=C(CO)[C@@H](O)[C@]2(O)[C@H]1OC(=O)c1ccccc1OC(C)C)[C@H]1[C@@H](C[C@H]3C)C1(C)C	Emax	113%

Query string: Which Emax is listed for CC1=C[C@]23C(=O)[C@@H](C=C(CO)[C@@H](O)[C@]2(O)[C@H]1OC(=O)c1c(N)cccc1F)[C@H]1[C@@H](C[C@H]3C)C1(C)C ?
Result string: 133%

Query string: Which Emax is listed for CC1=C[C@]23C(=O)[C@@H](C=C(CO)[C@@H](O)[C@]2(O)[C@H]1OC(=O)c1c(C)cccc1O)[C@H]1[C@@H](C[C@H]3C)C1(C)C ?
Result string: 125%

Query string: Which Emax is listed for CC1=C[C@]23C(=O)[C@@H](C=C(CO)[C@@H](O)[C@]2(O)[C@H]1OC(=O)c1c(N)cccc1Cl)[C@H]1[C@@H](C[C@H]3C)C1(C)C ?
Result string: 161%

Query string: Which Emax is listed for CNc1cccc(F)c1C(=O)O[C@H]1C(C)=C[C@]23C(=O)[C@@H](C=C(CO)[C@@H](O)[C@]12O)[C@H]1[C@@H](C[C@H]3C)C1(C)C ?
Result string: 123%
